tested on: 556581-035-R-J1 tumor spheroid viability, % test/control; assay: Anticancer human tumor 556581-035-R-J1 patient-derived ovarian carcinoma cell line growth inhibition; conditions: second compound 0.00949 µM; first compound 3.16 µM; stronger effect = lower value; spheroids with HUVEC and MSC
So basically, if viability, T/C comes in under 70% it's Y, and if it's 70% or more it's N.

>>> classification("CC1COCCN1c1cc(-c2ccnn2C)c2ccnc(-c3ccn[nH]3)c2n1 (stereo unspecified) + CC[C@@]1(O)C(=O)OCc2c1cc1n(c2=O)Cc2cc3c(CN(C)C)c(O)ccc3nc2-1")
"Y"
>>> classification("[2H]c1nc(C)nc([2H])c1-c1cc(NC[C@@H](C)c2cccc3c(C(=O)NC)ccnc23)ncn1 + CC[C@@]1(O)C(=O)OCc2c1cc1n(c2=O)Cc2cc3c(CN(C)C)c(O)ccc3nc2-1")
"N"
>>> classification("COc1cc(C)[nH]c(=O)c1CN1CCc2c(Cl)cc(C(OC)C3COC3)c(Cl)c2C1=O (stereo unspecified) + CC[C@@]1(O)C(=O)OCc2c1cc1n(c2=O)Cc2cc3c(CN(C)C)c(O)ccc3nc2-1")
"N"
>>> classification("Cc1cc(C)c(CNC(=O)c2cc(-c3ccc(CN4CCOCC4)cc3)cc3c2cnn3C2CCCC2)c(=O)[nH]1 + CC[C@@]1(O)C(=O)OCc2c1cc1n(c2=O)Cc2cc3c(CN(C)C)c(O)ccc3nc2-1")
"N"
>>> classification("CC(C)n1c(=O)n(C)c2cnc3cc(F)c(-c4ccc(OCCCN5CCCCC5)nc4)cc3c21 + CC[C@@]1(O)C(=O)OCc2c1cc1n(c2=O)Cc2cc3c(CN(C)C)c(O)ccc3nc2-1")
"N"
>>> classification("COc1ccc([C@@H](O)c2cc(-c3ncnc4cc(N5CCOCC5)ccc34)c(F)cc2Cl)nn1 + CC[C@@]1(O)C(=O)OCc2c1cc1n(c2=O)Cc2cc3c(CN(C)C)c(O)ccc3nc2-1")
"Y"

###

tested on: 556581-035-R-J1 tumor spheroid viability, % test/control; assay: Anticancer human tumor 556581-035-R-J1 cell line growth inhibition; conditions: second compound 100 µM; first compound 3 µM; stronger effect = lower value; spheroids with HUVEC and MSC;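 further: spheroids exposed to compounds for 7 days before viability read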
A collection of molecules and their measured viability, T/C
value.type: viability, T/C (%)

>>> value_measured("CNCc1ccc(-c2cc(-c3nc(-c4ccc(S(=O)(=O)C(C)C)cc4)cnc3N)on2)cc1 + Cn1nnc2c(C(N)=O)ncn2c1=O")
11.6
>>> value_measured("O=C(c1cc(Cc2n[nH]c(=O)c3ccccc23)ccc1F)N1CCN(C(=O)C2CC2)CC1 + Cn1nnc2c(C(N)=O)ncn2c1=O")
70.6
>>> value_measured("Cc1sc2c(c1C)C(c1ccc(Cl)cc1)=NC(CC(=O)Nc1ccc(O)cc1)c1nnc(C)n1-2 (centres undefined) + Cn1nnc2c(C(N)=O)ncn2c1=O")
48.5
>>> value_measured("Cn1ncnc1[C@H]1c2n[nH]c(=O)c3cc(F)cc(c23)N[C@@H]1c1ccc(F)cc1 + Cn1nnc2c(C(N)=O)ncn2c1=O")
34

###

tested on: 556581-035-R-J1 tumor spheroid viability, % test/control; assay: Anticancer human tumor 556581-035-R-J1 cell line growth inhibition; conditions: second compound 0.00949 µM; first compound 1 µM; stronger effect = lower value; spheroids with HUVEC and MSC;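 further: spheroids exposed to compounds for 7 days before viability read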
value.type: viability, T/C (%)

>>> value_measured("COc1cc(C)[nH]c(=O)c1CN1CCc2c(Cl)cc(C(OC)C3COC3)c(Cl)c2C1=O (stereo not drawn) + CC[C@@]1(O)C(=O)OCc2c1cc1n(c2=O)Cc2cc3c(CN(C)C)c(O)ccc3nc2-1")
87.1
>>> value_measured("COc1ccc([C@@H](O)c2cc(-c3ncnc4cc(N5CCOCC5)ccc34)c(F)cc2Cl)nn1 + CC[C@@]1(O)C(=O)OCc2c1cc1n(c2=O)Cc2cc3c(CN(C)C)c(O)ccc3nc2-1")
57.8
>>> value_measured("CC1COCCN1c1cc(-c2ccnn2C)c2ccnc(-c3ccn[nH]3)c2n1 (stereo not drawn) + CC[C@@]1(O)C(=O)OCc2c1cc1n(c2=O)Cc2cc3c(CN(C)C)c(O)ccc3nc2-1")
38.1
